// Papp A→B at 2 h, 5 µM lookup, one value per entry
Experiment: Apparent permeability of the compound from apical to basolateral side of MDCK2 cells at 5 uM after 120 mins by LC/MS/MS analysis
Type: ADME, cell-based, Canis lupus familiaris, MDCK-II
Conditions: dog, MDCK
Recorded endpoint: Papp A→B at 2 h, 5 µM

Molecule | Recorded endpoint | Observed measurement
CC(=O)N[C@@H](Cc1cc(F)cc(F)c1)[C@H](O)CN[C@H]1CCOc2ccc(CC(C)(C)C)cc21 | Papp A→B at 2 h, 5 µM | 30 nm/s
CC(=O)N[C@@H](Cc1cc(F)cc(F)c1)[C@H](O)CN[C@H]1CCOc2ccc(OC3CCCO3)cc21 (mixture of isomers) | Papp A→B at 2 h, 5 µM | 110 nm/s
CC(=O)N[C@@H](Cc1cc(F)cc(F)c1)[C@H](O)CN[C@H]1CC(C)(C)Oc2ccc(CC(C)(C)C)cc21 | Papp A→B at 2 h, 5 µM | 3 nm/s
CC(=O)N[C@@H](Cc1cc(F)cc(F)c1)[C@H](O)CN[C@H]1CCOc2ccc(CC(C)(C)C#N)cc21 | Papp A→B at 2 h, 5 µM | 64 nm/s
CC(=O)N[C@@H](Cc1cc(F)cc(F)c1)[C@H](O)CN[C@H]1CC(C)(C)Oc2ccc(CC(C)(C)C#N)cc21 | Papp A→B at 2 h, 5 µM | 25 nm/s
CC(=O)N[C@@H](Cc1cc(F)cc(F)c1)[C@H](O)CN[C@H]1CCCc2ccc(CC(C)(C)C)cc21 | Papp A→B at 2 h, 5 µM | 3 nm/s
CC(=O)N[C@@H](Cc1cc(F)cc(F)c1)[C@H](O)CN[C@H]1CC(C)(C)Oc2ccc(CC(C)(F)F)cc21 | Papp A→B at 2 h, 5 µM | 17 nm/s
